tested_system: T1, recombinant human IL-13 receptor alpha 2 (hIL-13-Rα2) (human, UniProt Q14627 27-343)
T1 construct: Recombinant soluble antigen coated on ELISA plates or used in Biacore; also called rec hIL-13Rα2; rhIL-13Rα2
T1 sequence (looked up): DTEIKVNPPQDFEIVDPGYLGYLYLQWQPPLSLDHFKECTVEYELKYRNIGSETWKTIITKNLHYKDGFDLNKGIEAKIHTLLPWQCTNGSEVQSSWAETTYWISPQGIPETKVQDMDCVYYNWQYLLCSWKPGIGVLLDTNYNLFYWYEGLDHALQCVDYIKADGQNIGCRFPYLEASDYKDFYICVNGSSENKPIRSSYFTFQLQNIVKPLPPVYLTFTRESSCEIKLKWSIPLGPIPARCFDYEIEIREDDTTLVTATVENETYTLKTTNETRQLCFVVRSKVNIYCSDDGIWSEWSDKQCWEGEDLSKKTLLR
method_description: competition ELISA on plate (recombinant IL-13-Rα2), competitor biotinylated ch07
measure: pIC50
Just so you know, pIC50 here is -log10 of the concentration in molar units; reply with that number alone.

binder="hu07 heavy chain v1.5 paired with chimeric light chain (antibody, V domains shown, hIgG1 constant region; the chimeric light chain is the mu07 VL with human kappa constant region; also called hu07v1.5/kc; hu07 v1.5 paired with chimeric light chain Kc) VH: EVQLVESGGGLVQPGGSLRLSCAASGFSLTKYGVHWVRQAPGKGLEWVGVKWAGGSTDYNSALMSRFTISKDNAKNSLYLQMNSLRAEDTAVYYCARDHRDAMDYWGQGTLVTVSS VL: QVVLTQSPAIMSASPGERVTMTCTASLSVSSTYLHWYHQKPGSSPKLWIYSTSNLASGVPARFSGSGSGTSYSLTISSMEAEDAATYYCHQYHRSPLTFGSGTKLELK" assay_value=8.52
binder="chimeric antibody ch07 (antibody, human IgG1, V domains shown, also called chimeric antibody 07; biotin-ch07 (biotinylated form)) VH: QVQLKESGPGLVAPSQSLSINCTVSGFSLTKYGVHWIRQSPGKGLEWLGVKWAGGSTDYNSALMSRLTISKDNNKSQVFLKMNSLQSDDSAMYYCARDHRDAMDYWGQGTSVTVSS VL: QVVLTQSPAIMSASPGERVTMTCTASLSVSSTYLHWYHQKPGSSPKLWIYSTSNLASGVPARFSGSGSGTSYSLTISSMEAEDAATYYCHQYHRSPLTFGSGTKLELK" assay_value=8.66
binder="hu07 heavy chain v1.5 / light chain v1.1 (antibody, IgG1, V domains shown, hIgG1 constant region and hIg Kappa constant region; also called hu07v1.5/v1.1) VH: EVQLVESGGGLVQPGGSLRLSCAASGFSLTKYGVHWVRQAPGKGLEWVGVKWAGGSTDYNSALMSRFTISKDNAKNSLYLQMNSLRAEDTAVYYCARDHRDAMDYWGQGTLVTVSS VL: DIQMTQSPSSLSASVGDRVTITCTASLSVSSTYLHWYQQKPGSSPKLLIYSTSNLASGVPSRFSGSGSGTSFTLTISSLQPEDFATYYCHQYHRSPLTFGGGTKVEIK" assay_value=7.33

Turning now to a further record.
Quick one: pIC50 of hu07 heavy chain v1.5 / light chain v1.0 (antibody, IgG1, V domains shown, hIgG1 constant region and hIg Kappa constant region; also called hu07v1.5/v1.0) VH: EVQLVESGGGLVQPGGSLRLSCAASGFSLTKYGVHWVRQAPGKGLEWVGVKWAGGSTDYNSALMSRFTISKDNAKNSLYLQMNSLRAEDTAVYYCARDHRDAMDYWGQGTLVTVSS VL: DIQMTQSPSSLSASVGDRVTITCTASLSVSSTYLHWYQQKPGKAPKLLIYSTSNLASGVPSRFSGSGSGTDFTLTISSLQPEDFATYYCHQYHRSPLTFGGGTKVEIK ?
7.21

This collection of values is drawn from patent US20150266962A1.
